Where do these numbers come from? They come from paper doi:10.1101/2024.12.24.629646v1.

TEST_SYSTEM: mGlu5 WT (Homo sapiens, UniProt P41594)
Sequence (P41594 whole entry): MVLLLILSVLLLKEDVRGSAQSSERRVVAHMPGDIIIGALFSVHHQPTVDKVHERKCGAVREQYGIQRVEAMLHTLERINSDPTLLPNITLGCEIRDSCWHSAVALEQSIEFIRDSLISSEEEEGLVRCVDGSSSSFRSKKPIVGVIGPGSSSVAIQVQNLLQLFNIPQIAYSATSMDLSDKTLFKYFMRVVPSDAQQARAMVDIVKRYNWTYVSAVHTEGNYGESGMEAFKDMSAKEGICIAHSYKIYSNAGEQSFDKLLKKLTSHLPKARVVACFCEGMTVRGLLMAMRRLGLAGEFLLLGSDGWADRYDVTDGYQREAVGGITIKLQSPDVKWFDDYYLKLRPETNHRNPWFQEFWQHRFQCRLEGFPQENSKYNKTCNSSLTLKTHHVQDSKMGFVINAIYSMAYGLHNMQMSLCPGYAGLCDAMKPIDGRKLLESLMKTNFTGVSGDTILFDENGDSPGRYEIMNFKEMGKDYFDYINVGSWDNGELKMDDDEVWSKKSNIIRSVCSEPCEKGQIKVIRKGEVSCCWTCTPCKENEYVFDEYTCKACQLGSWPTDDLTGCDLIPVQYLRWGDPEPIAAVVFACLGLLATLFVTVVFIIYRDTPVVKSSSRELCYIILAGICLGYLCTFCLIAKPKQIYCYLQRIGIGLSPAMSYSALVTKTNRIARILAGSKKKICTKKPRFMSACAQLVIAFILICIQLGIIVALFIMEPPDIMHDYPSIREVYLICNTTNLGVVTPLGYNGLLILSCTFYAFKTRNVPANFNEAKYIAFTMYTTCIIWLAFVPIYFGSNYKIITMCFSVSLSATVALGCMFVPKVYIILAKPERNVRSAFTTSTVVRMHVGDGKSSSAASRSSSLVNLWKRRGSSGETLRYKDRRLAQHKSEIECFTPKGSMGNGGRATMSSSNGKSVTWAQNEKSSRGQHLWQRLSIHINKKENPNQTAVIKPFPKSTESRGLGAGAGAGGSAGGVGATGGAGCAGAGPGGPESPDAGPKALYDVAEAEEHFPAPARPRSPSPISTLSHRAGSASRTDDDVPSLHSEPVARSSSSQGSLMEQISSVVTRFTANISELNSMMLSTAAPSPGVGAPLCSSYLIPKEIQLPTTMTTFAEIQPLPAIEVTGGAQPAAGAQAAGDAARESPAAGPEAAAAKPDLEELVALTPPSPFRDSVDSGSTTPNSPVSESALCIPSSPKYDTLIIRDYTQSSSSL
TEST_DESCRIPTION: cell-based
pEC50: −log10 of the molar value.
QUANTITY_NAME: pEC50

I. C[C@@H](NC(=O)c1ccc(/N=N/c2cccc(F)c2)cn1)C(C)(C)O
II. C[C@@H](NC(=O)c1ccc(C#Cc2cccc(F)c2)cn1)C(C)(C)O
Input line: Between I and II , which one has the lower reported pEC50 value? I would appreciate it if you answered with the label of your choice.
Output line: I
(I: 5.93, II: 8.28)
